Tested on: M14 melanoma
TEST DETAILS: NCI-60 one-dose screen, 48 h (100 = growth as untreated, 0 = no growth, -100 = all killed)
TEST SETTINGS: 10 µM unless noted
Procedure: Growth inhibition of the M14 human tumor cell line is measured as a screen for anti-cancer activity. Cells are grown in 96 well plates and exposed to the test compound for 48 hours. Compounds are tested at a single concentration, which is 10^-5 M for most compounds. The reported endpoint is percent growth (GI% or GIPRCNT), where numbers from 0 - 100% represent growth inhibition, and numbers from -100% - 0 represent cell death. For example, a value of 40 represents 60% growth inhibition. […]
About 83,000 compounds went through this panel and 20% of them were active in at least one assay; those are over-represented in the sample as a whole.
As shown below, each of these compounds has a reported growth value.
Report the value in % with no unit label.

Below, 4 compounds whose answers are already recorded.
Cc1ccc(CNS(=O)(=O)/N=C2\NC(=O)NC2=C(Cl)Cl)cc1: 87.2
N/C(=N\c1nc2c(Br)cccc2s1)C(Br)Br: 10.9
O=C(CSc1nccc(=O)[nH]1)Nc1ccc(-c2nc3ccccc3[nH]2)cc1: 110
Clc1ccc2c(NCCCn3ccnc3)c3oc4ccc(Cl)cc4c3nc2c1: 105

Record Cc1ccc(/C=C/c2nn3c(-c4ccco4)nnc3s2)cc1C . Reported growth: 108

GET /value?item= CC(C)(C)Nc1nc2c(OCCc3ccccc3)cccn2c1-c1ccc(O)cc1 &field=growth returns 63.1

Reported growth ( CN(C)c1ccc(-c2c(NC(C)(C)C)nc3c(OCCc4ccccc4)cccn23)cc1 ) = 29.7

Value of growth reported for the compound Nc1c(C(=O)Nc2ccc(C(F)(F)F)cc2)sc2nc(-c3cnccn3)cc(-c3cccs3)c12 is 49.4

Record CN1C(=O)N(c2ccccc2)C2N=C(N/N=C/c3ccccc3)SC21 (stereo not given) . Reported growth: -18.9

// growth value for CCOC(=O)c1csc(NC(=O)CSc2nc3sc4c(c3c(=O)n2-c2ccc(Cl)cc2)CCCC4)n1 : 93.1

Source listed as PubChem BioAssay (NCI).
